Test system: 379773-124-R-J2-PDC complex spheroids, viability % test/control
Experiment: Anticancer human tumor 379773-124-R-J2-PDC patient-derived endometrial carcinoma cell line growth inhibition [CLK]; active = viability on the fitted dose curve at most 10% of control; inactive = the rest
Details: second compound 0.0316 µM; first compound 3.16 µM
Your reply should match one of these outcome classes. yes (1) = active, no (0) = inactive

Query block: GET /call?item= C#Cc1c(F)ccc2cc(O)cc(-c3ncc4c(N5CC6CCC(C5)N6)nc(OCC56CCCN5CC(F)C6)nc4c3F)c12 (stereo not drawn) + CNC(=O)c1ccc(Nc2nc(OC3CCCC3)c3c(-c4ccc5nc(C)oc5c4)c[nH]c3n2)c(OC)c1 returns the recorded outcome of this test.
Result block: no (0)

Query block: GET /call?item= Nc1ccn(C2OC(CO)C(O)C2(F)F)c(=O)n1 (stereo not drawn) + CNC(=O)c1ccc(Nc2nc(OC3CCCC3)c3c(-c4ccc5nc(C)oc5c4)c[nH]c3n2)c(OC)c1 returns the recorded outcome of this test.
Result block: yes (1)

Query block: GET /call?item= COC1C=CCC(C)C(C)S(=O)(=O)NC(=O)c2ccc3c(c2)N(CC2CCC21)CC1(CCCc2cc(Cl)ccc21)CO3 (stereo not drawn) + CN1CCN(c2cc(C(=O)Nc3cc4cc(-c5cnn(C)c5)ccc4cn3)ccn2)CC1 returns the recorded outcome of this test.
Result block: no (0)

====

System: 379773-124-R-J2-PDC complex spheroids, viability % test/control
Assay: Anticancer human tumor 379773-124-R-J2-PDC cell line growth inhibition [CLK];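 also: compound exposure lasted seven days before the viability readout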;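 as to viability, T/C: 100% = DMSO vehicle control wells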
Details: second compound 0.1 µM; first compound 10 µM; stronger effect = lower value
Recorded Endpoint: viability, T/C (%)
The reply should be a number in %, with the unit left off.

Query block: Param item = C=C(F)C(=O)N1CCN(c2nc(OCC3CCCN3C)nc3c2CCN(c2cccc4cccc(Cl)c24)C3)CC1CC#N (stereo not given) + CNC(=O)c1ccc(Nc2nc(OC3CCCC3)c3c(-c4ccc5nc(C)oc5c4)c[nH]c3n2)c(OC)c1 ; retrieve measured viability, T/C.
Result block: 0.13

Query block: Param item = C=CC(=O)N1CCN(c2nc(=O)n(-c3c(C)ccnc3C(C)C)c3nc(-c4c(O)cccc4F)c(F)cc23)C(C)C1 (stereo not given) + CNC(=O)c1ccc(Nc2nc(OC3CCCC3)c3c(-c4ccc5nc(C)oc5c4)c[nH]c3n2)c(OC)c1 ; retrieve measured viability, T/C.
Result block: 38.3

Query block: Param item = O=C(c1cc(Cc2n[nH]c(=O)c3ccccc23)ccc1F)N1CCN(C(=O)C2CC2)CC1 + CN1CCN(c2cc(C(=O)Nc3cc4cc(-c5cnn(C)c5)ccc4cn3)ccn2)CC1 ; retrieve measured viability, T/C.
Result block: 36.9

Query block: Param item = Nc1ccccc1NC(=O)c1ccc(CNC(=O)OCc2cccnc2)cc1 + CN1CCN(c2cc(C(=O)Nc3cc4cc(-c5cnn(C)c5)ccc4cn3)ccn2)CC1 ; retrieve measured viability, T/C.
Result block: 5.29

Query block: Param item = Nc1ccccc1NC(=O)c1ccc(CNC(=O)OCc2cccnc2)cc1 + CNC(=O)c1ccc(Nc2nc(OC3CCCC3)c3c(-c4ccc5nc(C)oc5c4)c[nH]c3n2)c(OC)c1 ; retrieve measured viability, T/C.
Result block: 5.65

====

Test system: 379773-124-R-J2-PDC complex spheroids, viability % test/control
Experiment: Anticancer human tumor 379773-124-R-J2-PDC cell line growth inhibition [CLK];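 also: compound exposure lasted seven days before the viability readout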
Details: curve of first compound; second compound 1 µM
I'd be grateful if you could share measured IC50 for these entries.

Query block: Param item = C=CC(=O)N1CCN(c2nc(=O)n(-c3c(C)ccnc3C(C)C)c3nc(-c4c(O)cccc4F)c(F)cc23)C(C)C1 (stereo not given) + CNC(=O)c1ccc(Nc2nc(OC3CCCC3)c3c(-c4ccc5nc(C)oc5c4)c[nH]c3n2)c(OC)c1 ; retrieve measured IC50.
Result block: < 31.6 nM

Query block: Param item = CCc1c2c(nc3ccc(O)cc13)-c1cc3c(c(=O)n1C2)COC(=O)[C@]3(O)CC + CNC(=O)c1ccc(Nc2nc(OC3CCCC3)c3c(-c4ccc5nc(C)oc5c4)c[nH]c3n2)c(OC)c1 ; retrieve measured IC50.
Result block: < 3.16 nM

Query block: Param item = CC1(C)CCC(CN2CCN(c3ccc(C(=O)NS(=O)(=O)c4ccc(NCC5CCOCC5)c([N+](=O)[O-])c4)c(Oc4cnc5[nH]ccc5c4)c3)CC2)=C(c2ccc(Cl)cc2)C1 + CNC(=O)c1ccc(Nc2nc(OC3CCCC3)c3c(-c4ccc5nc(C)oc5c4)c[nH]c3n2)c(OC)c1 ; retrieve measured IC50.
Result block: < 31.6 nM

Query block: Param item = Nc1ccn(C2OC(CO)C(O)C2(F)F)c(=O)n1 (stereo not given) + CNC(=O)c1ccc(Nc2nc(OC3CCCC3)c3c(-c4ccc5nc(C)oc5c4)c[nH]c3n2)c(OC)c1 ; retrieve measured IC50.
Result block: < 31.6 nM

Query block: Param item = COc1cccc2c1C(=O)c1c(O)c3c(c(O)c1C2=O)CC(O)(C(=O)CO)CC3OC1CC(N)C(O)C(C)O1 (stereo not given) + CNC(=O)c1ccc(Nc2nc(OC3CCCC3)c3c(-c4ccc5nc(C)oc5c4)c[nH]c3n2)c(OC)c1 ; retrieve measured IC50.
Result block: < 31.6 nM

Query block: Param item = CC(Nc1ccc2c(c1)OCCn1cc(N3C(=O)OCC3C(F)F)nc1-2)C(N)=O (stereo not given) + CNC(=O)c1ccc(Nc2nc(OC3CCCC3)c3c(-c4ccc5nc(C)oc5c4)c[nH]c3n2)c(OC)c1 ; retrieve measured IC50.
Result block: < 31.6 nM

Query block: Param item = CCCS(=O)(=O)Nc1ccc(F)c(C(=O)c2c[nH]c3ncc(-c4ccc(Cl)cc4)cc23)c1F + CNC(=O)c1ccc(Nc2nc(OC3CCCC3)c3c(-c4ccc5nc(C)oc5c4)c[nH]c3n2)c(OC)c1 ; retrieve measured IC50.
Result block: < 31.6 nM

Query block: Param item = NC(=O)C(=Cn1cnc(-c2cc(C(F)(F)F)cc(C(F)(F)F)c2)n1)c1cncnc1 + CN1CCN(c2cc(C(=O)Nc3cc4cc(-c5cnn(C)c5)ccc4cn3)ccn2)CC1 ; retrieve measured IC50.
Result block: < 9.49 nM

Query block: Param item = C=CC(=O)Nc1cc(Nc2nccc(-c3cn(C)c4ccccc34)n2)c(OC)cc1N(C)CCN(C)C + CNC(=O)c1ccc(Nc2nc(OC3CCCC3)c3c(-c4ccc5nc(C)oc5c4)c[nH]c3n2)c(OC)c1 ; retrieve measured IC50.
Result block: < 0.949 nM

Query block: Param item = C#Cc1c(F)ccc2cc(O)cc(-c3ncc4c(N5CC6CCC(C5)N6)nc(OCC56CCCN5CC(F)C6)nc4c3F)c12 (stereo not given) + CNC(=O)c1ccc(Nc2nc(OC3CCCC3)c3c(-c4ccc5nc(C)oc5c4)c[nH]c3n2)c(OC)c1 ; retrieve measured IC50.
Result block: < 31.6 nM

Query block: Param item = COc1ccc([C@@H](O)c2cc(-c3ncnc4cc(N5CCOCC5)ccc34)c(F)cc2Cl)nn1 + CN1CCN(c2cc(C(=O)Nc3cc4cc(-c5cnn(C)c5)ccc4cn3)ccn2)CC1 ; retrieve measured IC50.
Result block: < 31.6 nM

Query block: Param item = COC1C=CCC(C)C(C)S(=O)(=O)NC(=O)c2ccc3c(c2)N(CC2CCC21)CC1(CCCc2cc(Cl)ccc21)CO3 (stereo not given) + CN1CCN(c2cc(C(=O)Nc3cc4cc(-c5cnn(C)c5)ccc4cn3)ccn2)CC1 ; retrieve measured IC50.
Result block: < 31.6 nM

Query block: Param item = CC1(C)CCC(CN2CCN(c3ccc(C(=O)NS(=O)(=O)c4ccc(NCC5CCOCC5)c([N+](=O)[O-])c4)c(Oc4cnc5[nH]ccc5c4)c3)CC2)=C(c2ccc(Cl)cc2)C1 + CN1CCN(c2cc(C(=O)Nc3cc4cc(-c5cnn(C)c5)ccc4cn3)ccn2)CC1 ; retrieve measured IC50.
Result block: < 31.6 nM

Query block: Param item = COc1c(OCCCN2CCOCC2)ccc2c3n(c(=NC(=O)c4cnc(N)nc4)nc12)CCN3 + CN1CCN(c2cc(C(=O)Nc3cc4cc(-c5cnn(C)c5)ccc4cn3)ccn2)CC1 ; retrieve measured IC50.
Result block: < 3.16 nM

Query block: Param item = CC(CO)NC(=O)c1cc(-c2ccc(Cl)cc2)nn(-c2cnn(C)c2)c1=O (stereo not given) + CN1CCN(c2cc(C(=O)Nc3cc4cc(-c5cnn(C)c5)ccc4cn3)ccn2)CC1 ; retrieve measured IC50.
Result block: < 31.6 nM

Query block: Param item = CCN1CCN(Cc2ccc(Nc3ncc(F)c(-c4cc(F)c5nc(C)n(C(C)C)c5c4)n3)nc2)CC1 + CNC(=O)c1ccc(Nc2nc(OC3CCCC3)c3c(-c4ccc5nc(C)oc5c4)c[nH]c3n2)c(OC)c1 ; retrieve measured IC50.
Result block: < 3.16 nM

Query block: Param item = COC1C=CCC(C)C(C)S(=O)(=O)NC(=O)c2ccc3c(c2)N(CC2CCC21)CC1(CCCc2cc(Cl)ccc21)CO3 (stereo not given) + CNC(=O)c1ccc(Nc2nc(OC3CCCC3)c3c(-c4ccc5nc(C)oc5c4)c[nH]c3n2)c(OC)c1 ; retrieve measured IC50.
Result block: < 31.6 nM

Query block: Param item = NC(=O)C(=Cn1cnc(-c2cc(C(F)(F)F)cc(C(F)(F)F)c2)n1)c1cncnc1 + CNC(=O)c1ccc(Nc2nc(OC3CCCC3)c3c(-c4ccc5nc(C)oc5c4)c[nH]c3n2)c(OC)c1 ; retrieve measured IC50.
Result block: < 9.49 nM

Query block: Param item = CC(C)CC(NC(=O)C(Cc1ccccc1)NC(=O)c1cnccn1)B(O)O (stereo not given) + CNC(=O)c1ccc(Nc2nc(OC3CCCC3)c3c(-c4ccc5nc(C)oc5c4)c[nH]c3n2)c(OC)c1 ; retrieve measured IC50.
Result block: < 0.949 nM

Query block: Param item = COc1c(OCCCN2CCOCC2)ccc2c3n(c(=NC(=O)c4cnc(N)nc4)nc12)CCN3 + CNC(=O)c1ccc(Nc2nc(OC3CCCC3)c3c(-c4ccc5nc(C)oc5c4)c[nH]c3n2)c(OC)c1 ; retrieve measured IC50.
Result block: < 3.16 nM
